Listed next: entries and their corresponding Kd.
- measuredTarget: T1, human B7-H3 (Y-Biologics Inc.) (human, UniProt Q5ZPR3 29-466)
- T1 chain: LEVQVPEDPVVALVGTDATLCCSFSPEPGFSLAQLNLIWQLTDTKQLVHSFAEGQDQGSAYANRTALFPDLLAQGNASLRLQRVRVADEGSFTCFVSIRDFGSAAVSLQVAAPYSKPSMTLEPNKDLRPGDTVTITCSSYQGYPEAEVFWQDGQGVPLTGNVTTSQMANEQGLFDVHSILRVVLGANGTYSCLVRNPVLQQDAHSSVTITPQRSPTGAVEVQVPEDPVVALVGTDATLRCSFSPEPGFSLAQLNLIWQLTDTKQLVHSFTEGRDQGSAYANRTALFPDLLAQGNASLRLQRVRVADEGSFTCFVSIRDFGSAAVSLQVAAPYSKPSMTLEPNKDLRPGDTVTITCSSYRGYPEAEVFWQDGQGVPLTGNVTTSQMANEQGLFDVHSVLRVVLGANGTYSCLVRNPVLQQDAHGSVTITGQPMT
- assayExplanation: BLI (Octet QKe), antibody on AHC biosensor, human B7-H3 as analyte, 1:1 global fit
valueKind: Kd (pM)

- binder: "AB5 (SA2563, CD276-039C05_LS_002A11) (antibody, human IgG1, V domains shown, Whole human IgG; also called CD276-39C05_LS_002A11) VH: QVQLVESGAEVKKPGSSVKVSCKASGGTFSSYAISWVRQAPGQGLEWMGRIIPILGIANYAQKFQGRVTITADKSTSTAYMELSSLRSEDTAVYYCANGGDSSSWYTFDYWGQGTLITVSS VL: DIQMTQSPSTLSASVGDRLTITCRASQNINSWLAWYQQKPGKAPKLLIYKASYLQTGVPSRFSGSGSGTEFTLTITSLQPDDFASYYCQQYDSNPLTFGGGTKVEIK"
  result: 100
- binder: "AB2.1 (SA2107.01, CD276-040F10_IgG1_A1C) (antibody, V domains shown, Tested unconjugated; also called SA2107 A121C) VH: QVQLVESGAEVKKPGASVKLSCKASGYTFSSYWMHWVRQAPGQRLEWMGEINPGNGHTNYNEKFKSRVTITVDKSASTAYMELSSLRSEDTAVYYCVADPRRPKVPTALFVYWGQGTLVTVSS VL: DIQMTQSPSSVSASVGDRVTISCRASQGIGTWLAWYQQKPGKAPRLLIYAASSLDSGVPSRFSASGSGTDFTLTISSLQPEDFATYYCQQAINFPITFGQGTRLEIKR"
  result: 50
